System: WSU-DLCL2
Experiment: Methylated lysine of histone-H3 (H3K27Me3) detection by ELISA, WSU-DLCL2 cells
Type: cell-based
Conditions: Homo sapiens, WSUDLCL2, 168 h; WSU-DLCL2, 7 days treatment, H3K27Me3 normalized to total histone-3; read-out: IC50 of cell methylation, WSU-DLCL2
pIC50: −log10 of the molar value.
Property measured: pIC50

CCN(c1cc(O[C@H]2C[C@H](N3C[C@@H](C)O[C@@H](C)C3)C2)cc(C(=O)NCc2c(C)cc(C)[nH]c2=O)c1C)C1CCC(F)(F)CC1 ... 6.30 to 7.30
CCN(c1cc(O[C@H]2C[C@@H](N3C[C@@H](C)O[C@@H](C)C3)C2)cc(C(=O)NCc2c(C)cc(C)[nH]c2=O)c1C)[C@@H]1C[C@@H](C)O[C@@H](C)C1 ... < 6.00
CCN(c1cc(O[C@H]2C[C@H](N3CC4CCC(C3)O4)C2)cc(C(=O)NCc2c(C)cc(C)[nH]c2=O)c1Cl)C1CCOCC1 ... 6.30 to 7.30
CCN(c1cc(O[C@H]2C[C@H](N3CCN(C)CC3)C2)cc(C(=O)NCc2c(C)cc(C)[nH]c2=O)c1C)C1CCOCC1 ... 6.30 to 7.30
CCN(c1cc(O[C@H]2C[C@H](CN3CCCCC3)C2)cc(C(=O)NCc2c(C)cc(C)[nH]c2=O)c1C)C1CCOCC1 ... 6.30 to 7.30

Exam item: Which pIC50 value is on record for `CCN(c1cc(O[C@H]2C[C@H](N3C[C@@H](C)O[C@@H](C)C3)C2)cc(C(=O)NCc2c(C)cc(C)[nH]c2=O)c1C)[C@H]1C[C@@H](C)O[C@@H](C)C1` ?
Marked response: < 6.00

Exam item: Also need CCN(c1cc(C2CC2CN2CCNCC2)cc(C(=O)NCc2c(C)cc(C)[nH]c2=O)c1Cl)C1CCOCC1 (stereo not drawn) , thanks.
Marked response: < 6.00

Exam item: Also need `CCN(c1cc(O[C@H]2C[C@H](N3CCNCC3)C2)cc(C(=O)NCc2c(C)cc(C)[nH]c2=O)c1C)C1CCOCC1` , thanks.
Marked response: 6.30 to 7.30

Exam item: Also need Cc1cc(C)c(CNC(=O)c2cc(O[C@H]3C[C@H](N4C[C@@H](C)O[C@@H](C)C4)C3)cc(NC3CCOC3)c2C)c(=O)[nH]1 (stereo partly drawn) , thanks.
Marked response: < 6.00

Exam item: Also need `CCN(c1cc(O[C@H]2C[C@H](CN3C[C@@H](C)O[C@@H](C)C3)C2)cc(C(=O)NCc2c(C)cc(C)[nH]c2=O)c1C)C1CCOCC1` , thanks.
Marked response: > 7.30

* * *

Test: In vivo pharmacokinetic properties in mice
Design: species or system mouse
Details: male ICR mice; single intravenous 5 mg/kg and intragastric 250 mg/kg study
Property measured: CL (mL/min/lg)
Field format: number, assumed mL/min/lg, no unit text.

CCN(c1cc(O[C@H]2C[C@H](N3C[C@@H](C)O[C@@H](C)C3)C2)cc(C(=O)NCc2c(C)cc(C)[nH]c2=O)c1C)C1CCC(F)(F)CC1 ... 37.0

Exam item: Which CL value is on record for `CCN(c1cc(O[C@H]2C[C@H](N3CCCCC3)C2)cc(C(=O)NCc2c(C)cc(C)[nH]c2=O)c1C)C1CCC(F)(F)CC1` ?
Marked response: 27.1

Exam item: Also need CCN(c1cc(O[C@H]2C[C@H](N3C[C@@H](C)O[C@@H](C)C3)C2)cc(C(=O)NCc2c(OC)cc(C)[nH]c2=O)c1C)C1CC2CCC(C1)O2 (some centres unmarked) , thanks.
Marked response: 60.4

Exam item: Also need CCN(c1cc(O[C@H]2C[C@H](N3CCOCC3)C2)cc(C(=O)NCc2c(C)cc(C)[nH]c2=O)c1C)C1CC2CCC(C1)O2 (some centres unmarked) , thanks.
Marked response: 65.5

* * *

System: WSU-DLCL2
Assay: Methylated lysine of histone-H3 (H3K27Me3) detection by ELISA, WSU-DLCL2 cells
Type: cell-based
Settings: Homo sapiens, WSUDLCL2, 168 h; WSU-DLCL2, 7 days treatment, H3K27Me3 normalized to total histone-3; read-out: IC50 of cell methylation, WSU-DLCL2
pIC50: −log10 of the molar value.
Property measured: pIC50

CCN(c1cc(SC2CCC2)cc(C(=O)NCc2c(C)cc(C)[nH]c2=O)c1C)C1CCOCC1 ... < 6.00

Exam item: Which pIC50 value is on record for CCN(c1cc(O[C@H]2C[C@H](N3C[C@@H](C)O[C@@H](C)C3)C2)cc(C(=O)NCc2c(C)cc(C)[nH]c2=O)c1C)C1CC2CCC(C1)O2 (some centres unmarked) ?
Marked response: 6.30 to 7.30

Exam item: Also need `CCN(c1cc(OC2CCC2)cc(C(=O)NCc2c(C)cc(C)[nH]c2=O)c1Cl)C1CCOCC1` , thanks.
Marked response: 6.30 to 7.30

Exam item: Also need `CCN(c1cc(S(=O)(=O)C2CCC2)cc(C(=O)NCc2c(C)cc(C)[nH]c2=O)c1C)C1CCOCC1` , thanks.
Marked response: < 6.00

Exam item: Also need `CCN(c1cc(OC2CCC2)cc(C(=O)NCc2c(C)cc(C)[nH]c2=O)c1C)C1CCOCC1` , thanks.
Marked response: 6.30 to 7.30

Exam item: Also need `CCN(c1cc(O[C@H]2C[C@@H](N3CCC(C)CC3)C2)cc(C(=O)NCc2c(C)cc(C)[nH]c2=O)c1C)C1CCOCC1` , thanks.
Marked response: 6.30 to 7.30

Exam item: Also need `CCN(c1cc(O[C@H]2C[C@H](N3CCOCC3)C2)cc(C(=O)N(C)Cc2c(C)cc(C)[nH]c2=O)c1C)C1CCOCC1` , thanks.
Marked response: < 6.00

Exam item: Also need CCN(c1cc(OC2CC(CN3CCOCC3)C2)cc(C(=O)NCc2c(C)cc(C)[nH]c2=O)c1C)C1CCOCC1 (centres unmarked) , thanks.
Marked response: 6.30 to 7.30

Exam item: Also need `Cc1cc(C)c(CNC(=O)c2cc(O[C@H]3C[C@H](N4C[C@@H](C)O[C@@H](C)C4)C3)cc(NC3CCOCC3)c2C)c(=O)[nH]1` , thanks.
Marked response: < 6.00

Exam item: Also need CCN(c1cc(O[C@H]2C[C@H](N3C[C@@H](C)O[C@@H](C)C3)C2)cc(C(=O)NCc2c(C)cc(C)[nH]c2=O)c1C)C1CCOC1 (some centres unmarked) , thanks.
Marked response: 6.30 to 7.30

Exam item: Also need `CCN(c1cc(O[C@H]2C[C@@H](N3CCN(C(C)=O)CC3)C2)cc(C(=O)NCc2c(C)cc(C)[nH]c2=O)c1C)C1CCOCC1` , thanks.
Marked response: > 7.30

Exam item: Also need `CCN(c1cc(O[C@H]2C[C@H](N3C[C@@H](C)O[C@@H](C)C3)C2)cc(C(=O)NCc2c(C)cc(C)[nH]c2=O)c1C)[C@@H]1C[C@@H](C)O[C@@H](C)C1` , thanks.
Marked response: < 6.00

Exam item: Also need `CCN(c1cc(OC2CC(F)(F)C2)cc(C(=O)NCc2c(C)cc(C)[nH]c2=O)c1C)C1CCOCC1` , thanks.
Marked response: 6.30 to 7.30

Exam item: Also need CCN(c1cc(C2CC2CO)cc(C(=O)NCc2c(C)cc(C)[nH]c2=O)c1C)C1CCOCC1 (centres unmarked) , thanks.
Marked response: 6.30 to 7.30

* * *

Reported CL is given for each of the following compounds.
Experiment: In vivo pharmacokinetic properties in mice
Set-up: species or system mouse
Details: male ICR mice; single intravenous 5 mg/kg and intragastric 250 mg/kg study
Field format: number, assumed mL/min/lg, no unit text.

Exam item: Which CL value is on record for CCN(c1cc(O[C@H]2C[C@H](N3CCC(C)CC3)C2)cc(C(=O)NCc2c(C)cc(C)[nH]c2=O)c1Cl)C1CCOCC1 [Example 59] ?
Marked response: 59.1

Exam item: Also need CCN(c1cc(O[C@H]2C[C@H](N3C[C@@H](C)O[C@@H](C)C3)C2)cc(C(=O)NCc2c(OC)cc(C)[nH]c2=O)c1C)C1CCC(F)(F)CC1 [Example 87] , thanks.
Marked response: 31.0

* * *

Reported CL is given for each of the following molecules.
Experiment: In vivo pharmacokinetic properties in mice
Design: species or system mouse
Conditions: male ICR mice; single intravenous 5 mg/kg and intragastric 250 mg/kg study
Field format: number, assumed mL/min/lg, no unit text.

Would you please look over these solved cases?
CCN(c1cc(OC2CNC2)cc(C(=O)NCc2c(C)cc(C)[nH]c2=O)c1C)C1CCOCC1 [EPZ195, reference compound] ... 36.5
CCN(c1cc(O[C@H]2C[C@H](N3CCOCC3)C2)cc(C(=O)NCc2c(C)cc(C)[nH]c2=O)c1C)C1CCOCC1 ... 60.6
CCN(c1cc(OC2CN(C)C2)cc(C(=O)NCc2c(C)cc(C)[nH]c2=O)c1C)C1CCC(N(C)C)CC1 (centres unmarked) [EPZ349, reference compound] ... 149
CCN(c1cc(OC2CN(C(=O)OC(C)(C)C)C2)cc(C(=O)NCc2c(C)cc(C)[nH]c2=O)c1C)C1CCOCC1 [EPZ194, reference compound] ... 59.5
CCN(c1cc(O[C@H]2C[C@H](N3C[C@@H](C)O[C@@H](C)C3)C2)cc(C(=O)NCc2c(C)cc(C)[nH]c2=O)c1C)C1CC2CCC(C1)O2 (some centres unmarked) ... 103

Exam item: Which CL value is on record for `CCN(c1cc(O[C@H]2C[C@H](N3CCCCC3)C2)cc(C(=O)NCc2c(C)cc(C)[nH]c2=O)c1C)C1CCOCC1` ?
Marked response: 80.84

Exam item: Also need `CCN(c1cc(O[C@H]2C[C@H](N3CCCCC3)C2)cc(C(=O)NCc2c(OC)cc(C)[nH]c2=O)c1C)C1CCOCC1` , thanks.
Marked response: 45.17

Exam item: Also need `CCN(c1cc(O[C@H]2C[C@H](N3CCCCC3)C2)cc(C(=O)NCc2c(C)cc(C)[nH]c2=O)c1Cl)C1CCOCC1` , thanks.
Marked response: 53.5
